Parameter normalized RNA/DNA level with ligand (log10): see the listing below.
B1: library; a variant is named by its letters at N, in order (parent)
chain: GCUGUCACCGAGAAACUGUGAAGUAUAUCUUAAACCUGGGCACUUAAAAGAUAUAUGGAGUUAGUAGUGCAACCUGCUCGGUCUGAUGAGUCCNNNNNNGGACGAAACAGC

variants of: B1; test: normalized RNA/DNA level with ligand (relative to sTRSVctl = 100) (log10 (% of sTRSVctl)); HEK293T; ligand: cyclic di-GMP (c-di-GMP-II aptamer); ligand concentration (+) RNA-Seq: 1 mM; higher = less ribozyme self-cleavage, higher mRNA level; settings: reporter: mCherry (pCS4076), ligand present: yes
Respond numerically, and do not add a unit to the figure.

>>> df
                                        seq  value_measured
0  GCUGUCACCGAGAAACUGUGAAGUAUAUCUUAAACCUGGGCACUUAAAAGAUAUAUGGAGUUAGUAGUGCAACCUGCUCGGUCUGAUGAGUCCUUCUAAGGACGAAACAGC [UUCUAA]             1.8
1  GCUGUCACCGAGAAACUGUGAAGUAUAUCUUAAACCUGGGCACUUAAAAGAUAUAUGGAGUUAGUAGUGCAACCUGCUCGGUCUGAUGAGUCCUUUGUGGGACGAAACAGC [UUUGUG]            1.91
2  GCUGUCACCGAGAAACUGUGAAGUAUAUCUUAAACCUGGGCACUUAAAAGAUAUAUGGAGUUAGUAGUGCAACCUGCUCGGUCUGAUGAGUCCGUCUCAGGACGAAACAGC [GUCUCA]            1.83

Any idea what normalized RNA/DNA level with ligand (log10) was measured for GCUGUCACCGAGAAACUGUGAAGUAUAUCUUAAACCUGGGCACUUAAAAGAUAUAUGGAGUUAGUAGUGCAACCUGCUCGGUCUGAUGAGUCCUUCAGUGGACGAAACAGC [UUCAGU] ?
1.89

Any idea what normalized RNA/DNA level with ligand (log10) was measured for GCUGUCACCGAGAAACUGUGAAGUAUAUCUUAAACCUGGGCACUUAAAAGAUAUAUGGAGUUAGUAGUGCAACCUGCUCGGUCUGAUGAGUCCAUCUUGGGACGAAACAGC [AUCUUG] ?
1.81
